Numbers sourced from patent US5843954A.

Some compounds, each annotated with its measured LD50 at 168 h.
test_name: Acute toxicity test by intraperitoneal administration
protocol_conditions: mouse, in vivo, ip, ICR male mice, 1 week observation
Dear colleague, please return just the value in mg/kg, with no unit written.

CCc1c2c(nc3cc(F)ccc13)-c1cc([C@@](O)(CC)C(=O)NCCN(C)C)c(COC(=O)CCSC)c(=O)n1C2 = 146

Need LD50 at 168 h of CCCC(=O)OCc1c([C@@](O)(CC)C(=O)NCCN(C)C)cc2n(c1=O)Cc1c-2nc2cc(F)ccc2c1CC , thanks.
152

Need LD50 at 168 h of CCc1c2c(nc3cc(F)c(C)cc13)-c1cc([C@@](O)(CC)C(=O)NCCN(C)C)c(COC(=O)c3ccc(OC)cc3)c(=O)n1C2 , thanks.
113

Need LD50 at 168 h of CCc1c2c(nc3cc(F)c(C)cc13)-c1cc([C@@](O)(CC)C(=O)NCCN(C)C)c(COC(=O)CCSC)c(=O)n1C2 , thanks.
154

Need LD50 at 168 h of CCCC(=O)OCc1c([C@@](O)(CC)C(=O)NCCN(C)C)cc2n(c1=O)Cc1c-2nc2ccc(O)cc2c1CC , thanks.
362

Need LD50 at 168 h of CCC(=O)OCc1c([C@@](O)(CC)C(=O)NCCN(C)C)cc2n(c1=O)Cc1c-2nc2ccc(Cl)cc2c1CC , thanks.
186

Need LD50 at 168 h of CCC(=O)OCc1c([C@@](O)(CC)C(=O)NCCN(C)C)cc2n(c1=O)Cc1c-2nc2cc(F)ccc2c1CC , thanks.
124

Need LD50 at 168 h of CCc1c2c(nc3ccc(C)cc13)-c1cc([C@@](O)(CC)C(=O)NCCN(C)C)c(COC(=O)CCSC)c(=O)n1C2 , thanks.
234

###

Some molecules, each annotated with its measured 40-day survivors.
Tested on: mouse leukemia L1210
test_name: Antitumor activity for L1210 (life prolonging effect, mouse leukemia transplanted intraperitoneally)
Format: in vivo
protocol_conditions: at optimum dose; group of six female CDF1 mice

Here are 3 molecules together with their reported answers.
CCc1c2c(nc3cc(F)ccc13)-c1cc([C@@](O)(CC)C(=O)NCCN(C)C)c(COC(=O)CCSC)c(=O)n1C2 = 1/6
CCCC(=O)OCc1c([C@@](O)(CC)C(=O)NCCN(C)C)cc2n(c1=O)Cc1c-2nc2cc(F)ccc2c1CC = 2/6
CCCC(=O)OCc1c([C@@](O)(CC)C(=O)NCCN(C)C)cc2n(c1=O)Cc1c-2nc2cc(F)c(C)cc2c1CC = 1/6

Need 40-day survivors of CCCC(=O)OCc1c([C@@](O)(CC)C(=O)NCCN(C)C)cc2n(c1=O)Cc1c-2nc2cc(Cl)c(Cl)cc2c1CC , thanks.
0/6

###

test_name: Water solubility
Assay type: physicochemical
Some compounds, each annotated with its measured solubility.

Here are 5 compounds together with their reported answers.
CCC(=O)OCc1c([C@@](O)(CC)C(=O)NCCN(C)C)cc2n(c1=O)Cc1c-2nc2ccc(O)cc2c1CC [Compound C28] = > 56 mg/mL
CCc1c2c(nc3ccc(O)cc13)-c1cc([C@@](O)(CC)C(=O)NCCN(C)C)c(COC(=O)c3cccc(F)c3)c(=O)n1C2 [Compound C38] = 6 mg/mL
CCCC(=O)OCc1c([C@@](O)(CC)C(=O)NCCN(C)C)cc2n(c1=O)Cc1c-2nc2cc(F)c(C)cc2c1CC [Compound C24] = 42 mg/mL
CCOc1ccc2nc3c(c(C)c2c1)Cn1c-3cc([C@@](O)(CC)C(=O)NCCN(C)C)c(COC(=O)CCSC)c1=O [Compound C1] = > 64 mg/mL
CCc1c2c(nc3ccc(Cl)cc13)-c1cc([C@@](O)(CC)C(=O)NCCN(C)C)c(COC(=O)CCSC)c(=O)n1C2 [Compound C5] = 21 mg/mL

Need solubility of CCc1c2c(nc3cc(Cl)c(Cl)cc13)-c1cc([C@@](O)(CC)C(=O)NCCN(C)C)c(COC(=O)CCSC)c(=O)n1C2 [Compound C19] , thanks.
24 mg/mL

###

test_name: Antitumor activity for L1210 (life prolonging effect, mouse leukemia transplanted intraperitoneally)
Type: in vivo
protocol_conditions: mouse, in vivo, ip; numerator of therapeutic index; i.p. total dose; read-out: Maximum tolerable dose
result_type: MTD (mg/kg)
Dear colleague, please return just the value in mg/kg, with no unit written.

Here are 4 compounds together with their reported answers.
CCc1c2c(nc3ccc(C)cc13)-c1cc([C@@](O)(CC)C(=O)NCCN(C)C)c(COC(=O)CCSC)c(=O)n1C2 = 100
CCC(=O)OCc1c([C@@](O)(CC)C(=O)NCCN(C)C)cc2n(c1=O)Cc1c-2nc2cc(F)c(OC)cc2c1CC = 3.13
CCCC(=O)OCc1c([C@@](O)(CC)C(=O)NCCN(C)C)cc2n(c1=O)Cc1c-2nc2cc(F)ccc2c1CC = 12.5
CCc1c2c(nc3cc(F)ccc13)-c1cc([C@@](O)(CC)C(=O)NCCN(C)C)c(COC(=O)c3ccc(OC)cc3)c(=O)n1C2 = 50

Need MTD of CCc1c2c(nc3cc(F)c(C)cc13)-c1cc([C@@](O)(CC)C(=O)NCCN(C)C)c(COC(=O)CCSC)c(=O)n1C2 , thanks.
12.5

###

test_name: Acute toxicity test by intraperitoneal administration
protocol_conditions: mouse, in vivo, ip, ICR male mice, 1 week observation
Counter-ions that a name gives are not always drawn.
result_type: LD50 at 168 h (mg/kg)
Dear colleague, please return just the value in mg/kg, with no unit written.

Need LD50 at 168 h of CCc1c2c(nc3ccc(O)cc13)-c1cc([C@@](O)(CC)C(=O)NCCN(C)C)c(COC(=O)c3ccc(F)cc3)c(=O)n1C2 , thanks.
477

Need LD50 at 168 h of CCC(=O)OCc1c([C@@](O)(CC)C(=O)NCCN(C)C)cc2n(c1=O)Cc1c-2nc2cc(Cl)c(Cl)cc2c1CC , thanks.
112

Need LD50 at 168 h of CCc1c2c(nc3cc(Cl)c(Cl)cc13)-c1cc([C@@](O)(CC)C(=O)NCCN(C)C)c(COC(=O)CCSC)c(=O)n1C2 , thanks.
94.8

Need LD50 at 168 h of CC[C@@](O)(C(=O)O)c1cc2n(c(=O)c1CO)Cc1cc3ccccc3nc1-2 [CPT-Na salt, reference compound] , thanks.
227

Need LD50 at 168 h of CCC(=O)OCc1c([C@@](O)(CC)C(=O)NCCN(C)C)cc2n(c1=O)Cc1c-2nc2cc(F)c(C)cc2c1CC , thanks.
184

Need LD50 at 168 h of CCc1c2c(nc3cc(F)c(OC)cc13)-c1cc([C@@](O)(CC)C(=O)NCCN(C)C)c(COC(=O)CCSC)c(=O)n1C2 , thanks.
68.6

Need LD50 at 168 h of CCc1c2c(nc3cc(F)c(C)cc13)-c1cc([C@@](O)(CC)C(=O)NCCN(C)C)c(COC(=O)c3ccncc3)c(=O)n1C2 , thanks.
310
